From: paper PMC4623604

# SUBJECT_OF_TEST: p27-D2-FL/Cdk2/cyclin A (Homo sapiens, UniProt P46527, C99S/R93C)
# Construct: p27-D2 (residues 58-105 of human p27); 6xHis (N, cleaved yes)
# Sequence (P46527 58-105 R93C/C99S): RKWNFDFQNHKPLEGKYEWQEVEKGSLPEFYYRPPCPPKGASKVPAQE
# TEST_METHOD_NOTES: Fluorescence anisotropy displacement of p27-D2-FL from Cdk2/cyclin A
# CONDITION_NOTES: 20 nM p27-D2-FL, 300 nM Cdk2/cyclin A, SJ403 0-3 mM; read-out: IC50, reduction of fluorescence anisotropy of p27-D2-FL (displacement from Cdk2/cyclin A)
pIC50: −log10 of the molar value.
MEASUREMENT_TYPE: pIC50

{"columns": ["SMI", "RECORDED_NUMBER"],
 "data": [
  ["CCn1c(C)c(C)n2c3c(=O)n(C)c(=O)n(C)c3nc12", 3.32]
]}
